molecular target: T1, soluble human FcRn (human, UniProt P55899 24-297; P61769 21-119, biotinylated (Sulfo-NHS-LC-Biotin) in the ELISA; amine-coupled to CM5 chip in SPR); assay: SPR, pH 6
T1 construct: also called shFcRn; biotinylated shFcRn
T1 sequence (P55899 24-297 limits assumed, chain 1 of 2): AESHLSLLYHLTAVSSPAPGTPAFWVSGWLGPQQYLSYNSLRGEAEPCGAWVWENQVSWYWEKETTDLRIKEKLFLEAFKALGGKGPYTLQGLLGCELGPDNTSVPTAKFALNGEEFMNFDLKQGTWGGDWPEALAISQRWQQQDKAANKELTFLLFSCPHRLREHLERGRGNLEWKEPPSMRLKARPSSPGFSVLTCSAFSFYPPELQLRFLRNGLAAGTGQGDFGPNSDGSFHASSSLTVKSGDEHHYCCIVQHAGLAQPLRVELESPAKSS
T1 sequence (P61769 21-119 limits assumed, chain 2 of 2): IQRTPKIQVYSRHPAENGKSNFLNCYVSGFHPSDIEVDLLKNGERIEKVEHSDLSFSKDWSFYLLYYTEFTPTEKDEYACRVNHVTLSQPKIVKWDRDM
testReadout: Kd (nM)
# unit: nM | format: bare number

Consider the worked cases shown below.
* RFXTGXFGGLYPC (Pen at 3; 4-PiperidylAla at 6; Sar at 9; NMeLeu at 10; disulfide; C-terminal amide) [Peptide No. 264] | 5200
* RFXTGXFGGLYPC (Pen at 3; 2-PyrrolidinylAla at 6; Sar at 9; NMeLeu at 10; disulfide; C-terminal amide) [Peptide No. 262] | 8400
* RFXTGXFGGLYPC (Pen at 3; His(Me)2 (di-methylated histidine) at 6; disulfide; C-terminal amide) [Peptide No. 260] | 190
* RFXTGXFGGLYPC (Pen at 3; 3PyridylAla at 6; Sar at 9; NMeLeu at 10; disulfide; C-terminal amide) [Peptide No. 250] | 64
* RFXTGKFGGLYPC (Pen at 3; Sar at 9; NMeLeu at 10; disulfide; C-terminal amide) [Peptide No. 255] | 1300

Kd reading for QRFXTGHFGGLYPCNGP (Pen (L-penicillamine) at 4; disulfide; C-terminal amide) [Peptide No. 32] : 250

Kd reading for RFXTGXFGGLYPC (Pen at 3; 4GuanylPhe at 6; Sar at 9; NMeLeu at 10; disulfide; C-terminal amide) [Peptide No. 257] : 74

Kd reading for RFXTGAFGGLYPC (Pen at 3; Sar at 9; NMeLeu at 10; disulfide; C-terminal amide) [Peptide No. 266] : 9900

Kd reading for RFXTGRFGGLYPC (Pen at 3; Sar at 9; NMeLeu at 10; disulfide; C-terminal amide) [Peptide No. 256] : 500
